Target: Complement factor B (Homo sapiens, UniProt P00751)
Sequence (P00751 whole entry): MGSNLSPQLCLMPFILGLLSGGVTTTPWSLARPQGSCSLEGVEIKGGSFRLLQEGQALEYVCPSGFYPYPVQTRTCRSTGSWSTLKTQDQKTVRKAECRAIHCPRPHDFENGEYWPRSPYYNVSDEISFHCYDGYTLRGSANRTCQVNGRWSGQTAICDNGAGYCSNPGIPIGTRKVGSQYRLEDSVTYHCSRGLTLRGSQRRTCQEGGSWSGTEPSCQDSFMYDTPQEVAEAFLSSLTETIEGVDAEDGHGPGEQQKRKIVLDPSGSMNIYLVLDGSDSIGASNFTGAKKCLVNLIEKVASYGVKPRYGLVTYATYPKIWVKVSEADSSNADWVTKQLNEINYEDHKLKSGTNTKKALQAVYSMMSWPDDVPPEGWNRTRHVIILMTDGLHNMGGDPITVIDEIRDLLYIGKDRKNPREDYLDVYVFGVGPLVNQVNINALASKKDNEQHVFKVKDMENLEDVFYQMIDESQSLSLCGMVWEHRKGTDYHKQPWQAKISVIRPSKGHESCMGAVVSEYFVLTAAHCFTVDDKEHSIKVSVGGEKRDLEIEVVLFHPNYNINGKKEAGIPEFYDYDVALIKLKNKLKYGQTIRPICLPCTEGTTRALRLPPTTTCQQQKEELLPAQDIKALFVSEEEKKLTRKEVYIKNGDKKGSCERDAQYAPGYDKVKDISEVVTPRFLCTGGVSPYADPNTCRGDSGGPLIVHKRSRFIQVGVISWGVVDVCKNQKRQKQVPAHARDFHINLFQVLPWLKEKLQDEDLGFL
Assay: Displacement of Cy5 from recombinant human biotin-labeled factor B expressed in drosophila cells after 2 hrs by TR-FRET assay

Smiles Entry	Unit Abbrev	IC50
COc1cc(C)c2[nH]ccc2c1C(C)(C)c1nc2cc(C#N)cnc2[nH]1	nM	30

----------
Biological target: Integrin alpha-M/beta-2 (Homo sapiens, UniProt P05107+P11215)
Sequence (P05107 23-769 limits assumed, other chains not shown): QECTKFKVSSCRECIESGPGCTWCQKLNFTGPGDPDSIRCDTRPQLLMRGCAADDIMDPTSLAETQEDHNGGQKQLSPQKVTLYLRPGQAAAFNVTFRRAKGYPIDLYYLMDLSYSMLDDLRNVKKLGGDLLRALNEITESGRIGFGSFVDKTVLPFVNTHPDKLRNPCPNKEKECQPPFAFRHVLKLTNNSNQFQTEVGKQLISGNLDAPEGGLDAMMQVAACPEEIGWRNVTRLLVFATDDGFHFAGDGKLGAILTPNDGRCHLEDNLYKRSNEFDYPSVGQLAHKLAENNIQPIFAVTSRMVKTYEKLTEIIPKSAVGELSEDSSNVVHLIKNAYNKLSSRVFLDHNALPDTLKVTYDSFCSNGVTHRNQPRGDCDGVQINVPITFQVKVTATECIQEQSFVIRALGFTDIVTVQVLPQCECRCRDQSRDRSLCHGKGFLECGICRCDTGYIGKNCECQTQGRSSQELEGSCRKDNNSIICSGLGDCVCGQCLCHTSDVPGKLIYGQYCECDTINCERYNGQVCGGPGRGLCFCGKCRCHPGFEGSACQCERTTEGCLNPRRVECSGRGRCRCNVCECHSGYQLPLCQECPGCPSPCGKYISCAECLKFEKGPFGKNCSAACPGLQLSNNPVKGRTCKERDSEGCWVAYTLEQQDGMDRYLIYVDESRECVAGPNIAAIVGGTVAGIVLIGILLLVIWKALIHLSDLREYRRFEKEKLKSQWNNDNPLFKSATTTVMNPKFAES
Assay: Antagonist activity at CR3 in carboxyfluorescein diacetate succiminidyl ester-labeled human PMN assessed as inhibition of TNF/PMA-stimulated adhesion of PMN to fibrinogen preincubated for 10 mins followed by TNF/PMA addition by fluorescence assay
Format: protein-complex assay

Smiles Entry	Tgt	IC50
CCN1/C(=C/C=C/c2sc3ccccc3[n+]2CC)Sc2ccccc21	Integrin alpha-M/beta-2 (Homo sapiens, UniProt P05107+P11215)	2.5 to 10 µM
CC[n+]1c(/C=C/C=C/N2CCCc3ccccc32)sc2ccc3ccccc3c21	Integrin alpha-M/beta-2 (Homo sapiens, UniProt P05107+P11215)	2.5 to 10 µM
